target_or_system: UniProt P05181
Sequence (P05181 whole entry): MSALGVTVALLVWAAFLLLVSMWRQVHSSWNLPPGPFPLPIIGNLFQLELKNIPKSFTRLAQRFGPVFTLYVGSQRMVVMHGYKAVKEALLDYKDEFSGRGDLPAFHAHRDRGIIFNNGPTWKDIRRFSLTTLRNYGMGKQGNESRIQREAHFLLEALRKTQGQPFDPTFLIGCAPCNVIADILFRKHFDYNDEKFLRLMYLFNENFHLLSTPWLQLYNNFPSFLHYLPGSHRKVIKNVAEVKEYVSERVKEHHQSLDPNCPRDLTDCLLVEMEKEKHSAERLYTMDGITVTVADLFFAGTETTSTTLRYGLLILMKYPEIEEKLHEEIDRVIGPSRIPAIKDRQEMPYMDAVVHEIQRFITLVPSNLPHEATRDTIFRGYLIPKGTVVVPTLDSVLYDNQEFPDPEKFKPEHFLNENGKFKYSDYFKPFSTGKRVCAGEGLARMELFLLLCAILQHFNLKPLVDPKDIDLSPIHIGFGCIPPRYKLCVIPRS
method_summary: Inhibition of human CYP2E1 at 1 uM using luciferin-ME as substrate by enzyme bag based one point inhibition assay relative to control
Assay type: ADME
experimental_context: enzyme bags, probe luciferin-ME
quantity_measured: inhibition at 1 µM (%)

smiles_representation=O=C(O)c1cccc(CNC(=O)c2ccc(-n3ccnc3)cc2)c1 quantitative_readout=54

----------
target_or_system: Cytochrome P450 4Z1 (Homo sapiens, UniProt Q86W10)
method_summary: Inhibition of human CYP4Z1 overexpressed in human MCF7 cells using luciferin-3FBE as substrate incubated for 24 hrs followed by substrate addition by luminescence based assay
Assay type: cell-based
pIC50: −log10 of the molar value.
# pIC50 per record follows
quantity_measured: pIC50

smiles_representation=c1ccc(Cn2ccnc2)cc1 quantitative_readout=5.17
smiles_representation=O=C(O)c1cccc(CNC(=O)c2ccc(-n3ccnc3)cc2)c1 quantitative_readout=7.20

----------
target_or_system: CYP2D6 (Homo sapiens)
Sequence (P10635 whole entry): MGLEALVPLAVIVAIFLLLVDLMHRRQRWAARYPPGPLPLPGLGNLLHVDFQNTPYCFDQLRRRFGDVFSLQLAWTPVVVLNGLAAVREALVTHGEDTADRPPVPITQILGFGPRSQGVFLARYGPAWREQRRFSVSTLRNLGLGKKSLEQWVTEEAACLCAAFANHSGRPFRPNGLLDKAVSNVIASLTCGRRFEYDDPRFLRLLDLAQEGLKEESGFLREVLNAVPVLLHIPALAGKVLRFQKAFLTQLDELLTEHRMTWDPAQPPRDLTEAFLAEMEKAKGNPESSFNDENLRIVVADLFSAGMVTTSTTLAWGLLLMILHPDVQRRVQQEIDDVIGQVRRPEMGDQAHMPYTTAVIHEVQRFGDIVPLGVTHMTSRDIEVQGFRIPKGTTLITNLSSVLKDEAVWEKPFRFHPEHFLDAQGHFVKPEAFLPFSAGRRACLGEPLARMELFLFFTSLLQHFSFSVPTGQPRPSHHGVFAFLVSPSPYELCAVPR
method_summary: Inhibition of human CYP2D6 at 1 uM using luciferin-MEEGE as substrate by enzyme bag based one point inhibition assay relative to control
Format: ADME
experimental_context: enzyme bags, probe luciferin-MEEGE
quantity_measured: inhibition at 1 µM (%)

smiles_representation=O=C(O)c1cccc(CNC(=O)c2ccc(-n3ccnc3)cc2)c1 target_or_system="CYP2D6 (Homo sapiens)" quantitative_readout=-5.8

----------
target_or_system: Cytochrome P450 4Z1 (Homo sapiens, UniProt Q86W10)
method_summary: Inhibition of human CYP4Z1 expressed in permeabilized fission AZ3 yeast cells at 100 nM using luciferin-3FBE as substrate incubated for 3 hrs by luminescence based enzyme bag assay relative to control
Type: cell-based
# inhibition at 0.1 µM per record follows
quantity_measured: inhibition at 0.1 µM (%)

molecule=Cn1cnc2cc(C(=O)Nc3ccc(Oc4nn[nH]n4)cc3)ccc21 quantitative_readout=5
molecule=O=C(O)/C=C/c1ccc(Cn2ccnc2)cc1 quantitative_readout=21
molecule=O=C(O)c1cccc(CNC(=O)c2ccc(-n3ccnc3)cc2)c1 quantitative_readout=36
molecule="O=C(O)CCC1CCCN(C(=O)c2ccc(Cn3ccnc3)cc2)C1 (stereo unspecified)" quantitative_readout=1
molecule="CC1CCN(C(=O)c2cccc(OCC(=O)O)c2)CC1n1ccnc1 (stereo unspecified)" quantitative_readout=13
molecule=c1ccc(Cn2ccnc2)cc1 quantitative_readout=9

----------
target_or_system: Cytochrome P450 4Z1 (Homo sapiens)
method_summary: Inhibition of human CYP4Z1 overexpressed in human MCF7 cells using luciferin-BE as substrate incubated for 24 hrs followed by substrate addition by luminescence based assay
Type: cell-based
pIC50: −log10 of the molar value.
quantity_measured: pIC50

smiles_representation=c1ccc(Cn2ccnc2)cc1 target_or_system="Cytochrome P450 4Z1 (Homo sapiens)" quantitative_readout=5.23

----------
target_or_system: Cytochrome P450 4Z1 (Homo sapiens)
Sequence (Q86W10 whole entry): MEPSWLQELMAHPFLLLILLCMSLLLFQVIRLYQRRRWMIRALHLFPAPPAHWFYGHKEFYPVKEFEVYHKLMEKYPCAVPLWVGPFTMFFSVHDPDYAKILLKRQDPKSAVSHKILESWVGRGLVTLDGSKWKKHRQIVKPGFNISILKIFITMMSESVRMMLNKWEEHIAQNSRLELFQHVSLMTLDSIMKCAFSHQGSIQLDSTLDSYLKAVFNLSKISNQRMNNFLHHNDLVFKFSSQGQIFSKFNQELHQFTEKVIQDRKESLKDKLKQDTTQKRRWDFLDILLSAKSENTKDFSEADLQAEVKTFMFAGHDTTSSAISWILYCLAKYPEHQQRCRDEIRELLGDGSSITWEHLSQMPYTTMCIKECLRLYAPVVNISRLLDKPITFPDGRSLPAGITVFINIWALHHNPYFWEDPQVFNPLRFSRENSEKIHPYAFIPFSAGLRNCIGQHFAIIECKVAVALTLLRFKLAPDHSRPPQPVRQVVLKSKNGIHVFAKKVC
method_summary: Inhibition of human CYP4Z1 overexpressed in human MCF7 cells at 1 uM using luciferin-3FBE as substrate incubated for 24 hrs followed by substrate addition by luminescence based assay relative to control
Assay type: cell-based
Rule: inhibition at 1 µM under 20% gives false (0), otherwise true (1).

molecule="O=C(O)/C=C/c1ccc(Cn2ccnc2)cc1 [OZAGREL]" assigned_category="true (1)"
molecule=Cn1cnc2cc(C(=O)Nc3ccc(Oc4nn[nH]n4)cc3)ccc21 assigned_category="false (0)"
molecule="CC1CCN(C(=O)c2cccc(OCC(=O)O)c2)CC1n1ccnc1 (stereo unspecified)" assigned_category="true (1)"
molecule=O=C(O)c1cccc(CNC(=O)c2ccc(-n3ccnc3)cc2)c1 assigned_category="true (1)"
molecule="O=C(O)CCC1CCCN(C(=O)c2ccc(Cn3ccnc3)cc2)C1 (stereo unspecified)" assigned_category="false (0)"
molecule=c1ccc(Cn2ccnc2)cc1 assigned_category="false (0)"
